assayProcedure: DUX4 transcriptional activity inhibition in cells – 293T cells, Gaussia and Italica luciferase, primary screen (AID 1224904);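 on activity change, negative = inhibition: 0% = median of neutral control wells and -100% = median of positive control wells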
details: 293T-iDUX4 ZSCAN4-Gaussia luciferase reporter, 24 h; measured here: Italica tet-on control reporter; stronger effect = lower value; concentration not given here
The whole screen tested about 37,000 compounds, of which about 290 (0.78%) were called active. Not shown: some 10% with an inconclusive outcome. What follows is part of a selection rich in actives, with near analogues and random picks from the rest.
Exercise: state measured activity change, negative = inhibition for each of the compounds provided.
Express it in %; write the number only.

# input activity change, negative = inhibition for `CC(C)OC(=O)N(C)C[C@@H]1OCc2ccccc2-c2c(n(C)c3ccccc23)C(=O)N([C@H](C)CO)C[C@H]1C` ?
# output -0.897

# input Also need `CN1C(=O)c2cc(NC(=O)Nc3ccccc3F)ccc2OC[C@H]2O[C@@H](CC(=O)Nc3cccc(Cl)c3)CC[C@@H]21` , thanks.
# output 1.81

# input Moving on to `CCCNC(=O)C[C@H]1CC[C@H]2[C@H](COc3ccc(NC(=O)CC)cc3C(=O)N2C)O1`
# output -1.81

# input Proceed to `O=C(C[C@H]1CC[C@@H]2[C@H](COC[C@H](O)CN2S(=O)(=O)c2ccccc2)O1)N1CCOCC1`
# output 8.06

# input Check `O=C(C[C@@H]1CC[C@H]2[C@@H](COC[C@H](O)CN2C(=O)Nc2ccccc2)O1)NCCc1ccncc1` too.
# output 7.03

# input Please do the same for `COCC(=O)N1[C@@H](CO)[C@H](c2ccccc2)C12CN(C(=O)NC1CCCCC1)C2` as well.
# output 4.2

# input Next up: `O=C(CC1CC1)Nc1ccc2c(c1)[C@@H]1C[C@@H](CC(=O)NC3CCCCC3)O[C@H](CO)[C@@H]1O2`
# output 5.44

# input What about this compound? `O=C(CC(F)(F)F)N1C[C@H]2[C@@H](c3ccccc31)[C@H](CO)N2C(=O)Cc1cccnc1`
# output 0.448

# input Next up: `N#C[C@@H]1[C@@H](c2ccc(-c3ccccc3F)cc2)[C@@H](CO)N1C(=O)C1CC1`
# output -0.917

====

assayProcedure: DUX4 transcriptional activity inhibition in cells – 293T cells, Gaussia and Italica luciferase, primary screen (AID 1224904)
details: 293T-iDUX4 ZSCAN4-Gaussia luciferase reporter, 24 h; measured here: selective DUX4 reporter inhibition; stronger effect = lower value; concentration not given here
Screen size: about 37,000 compounds; about 290 (0.78%) were called active. Another 10% or so got no clear call; they are omitted. This excerpt belongs to a sample that is enriched for actives.
readoutName: Gaussia minus Italica difference (%)
Reply with just the number (in %).

# input Record request: Gaussia minus Italica difference value, item `O=C(CCN1CCCCC1)NCC[C@@H]1CC[C@H](NS(=O)(=O)c2cccc(Cl)c2)[C@H](CO)O1`
# output 12.6

# input Further, for `O=C(Cc1ccccc1)N1C[C@H]2[C@@H](c3ccccc31)[C@H](CO)N2C(=O)C1CCOCC1` ?
# output 3.16

# input Would you kindly repeat that for `COc1ccc2c3c([nH]c2c1)[C@H](CO)N(C(=O)C1CCOCC1)CC31CN(S(C)(=O)=O)C1` ?
# output -5.7

# input Now give it for `CCCNC(=O)N1C[C@@H](O)COC[C@H]2O[C@H](CC(=O)N3CCC(Cc4ccccc4)CC3)CC[C@@H]21` too.
# output -0.719
